Target: BACE1 enzyme (Homo sapiens, UniProt P56817)
Construct: endogenous in cells; washed 48,000 x g membrane pellet / cell homogenate
Sequence (P56817 46-501): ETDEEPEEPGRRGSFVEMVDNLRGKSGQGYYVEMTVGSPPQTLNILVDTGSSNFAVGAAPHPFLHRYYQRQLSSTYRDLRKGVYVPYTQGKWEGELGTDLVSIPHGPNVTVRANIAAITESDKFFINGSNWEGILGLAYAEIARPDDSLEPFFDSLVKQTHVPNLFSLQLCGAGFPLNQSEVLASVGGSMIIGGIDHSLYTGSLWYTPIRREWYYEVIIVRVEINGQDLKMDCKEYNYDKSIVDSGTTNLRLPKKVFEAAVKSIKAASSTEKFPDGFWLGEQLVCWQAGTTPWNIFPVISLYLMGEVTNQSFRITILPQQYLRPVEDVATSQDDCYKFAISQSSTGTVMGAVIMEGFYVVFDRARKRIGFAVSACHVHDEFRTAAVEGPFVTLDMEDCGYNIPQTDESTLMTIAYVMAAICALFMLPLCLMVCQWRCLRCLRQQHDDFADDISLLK
Assay: Radioligand displacement assay with a radiolabeled BACE inhibitor
Conditions: HEK293-9B.A1 cell homogenate overexpressing BACE1, 1 nM radioligand, pH 5.0, 1.5 hr at 25° C.; read-out: Activity Rating (activity based on IC50 values)
pIC50: −log10 of the molar value.
Give pIC50 for every item shown.

Sample answers from the record:
CC(C)C[C@@H]1NC(=O)CCCC=CCO[C@@H]2C[C@H](NC[C@H]1O)c1cc(OC(C)C)ccc12: < 6.30
CCCC[C@H](C)C(=O)N(C)[C@H]1CCCCO[C@@H]2C[C@H](NC[C@@H](O)[C@H](Cc3cc(Cl)cc(Cl)c3)NC1=O)c1cc(OC)ccc12: > 8.00

Would you kindly share the measured pIC50 for CCCCCS(=O)(=O)N(C)[C@H]1CC=CCO[C@@H]2C[C@H](NC[C@@H](O)[C@H](Cc3cc(Cl)cc(Cl)c3)NC1=O)c1cc(OC)ccc12 ?
> 8.00
